- STUDY_SYSTEM: Protein disulfide-isomerase A6 (Homo sapiens)
- EXPERIMENT_NOTES: inhibitors of ERp5-driven insulin aggregation, primary screen, biochemical, turbidity, absorbance 650 nm, single point (AID 651711)
- MEASUREMENT_SETUP: 90 min, at 9.99 µM, hits give high values
About 180 (0.051%) of roughly 350,000 compounds were called active. The entries come from a sample that favours actives as a whole.
MEASURED_METRIC: inhibition

>  <SMILES_REPR>
O=S(=O)(c1ccccc1)N1CCCCN2[C@@H](CO)[C@H](c3ccc(C#Cc4cccnc4)cc3)[C@@H]2C1

>  <STUDY_SYSTEM>
Protein disulfide-isomerase A6 (Homo sapiens)

>  <inhibition>
-0.401% (inactive)

$$$$
>  <SMILES_REPR>
O=C(C[C@@H]1C[C@@H]2c3cc(NC(=O)c4ccc5c(c4)OCO5)ccc3O[C@@H]2[C@H](CO)O1)NCC1CC1

>  <STUDY_SYSTEM>
Protein disulfide-isomerase A6 (Homo sapiens)

>  <inhibition>
-3.55% (inactive)

$$$$
>  <SMILES_REPR>
COc1ccc2c3c(n(C)c2c1)[C@@H](CO)N(CC1CC1)CC31CN(C(=O)c2cccc(F)c2)C1

>  <STUDY_SYSTEM>
Protein disulfide-isomerase A6 (Homo sapiens)

>  <inhibition>
-2.91% (inactive)

$$$$
>  <SMILES_REPR>
COc1ccccc1NC(=O)Nc1ccc2c(c1)OC[C@H](C)NC[C@H](C)[C@@H](OC)CN(C)C2=O

>  <STUDY_SYSTEM>
Protein disulfide-isomerase A6 (Homo sapiens)

>  <inhibition>
7.16% (inactive)

$$$$
>  <SMILES_REPR>
Cc1cccc(-c2ccccc2[C@@H]2[C@H](C#N)N(c3ncc(-c4ccccc4)s3)[C@H]2CO)c1

>  <STUDY_SYSTEM>
Protein disulfide-isomerase A6 (Homo sapiens)

>  <inhibition>
5.5% (inactive)

$$$$

I need inhibition for every entry listed below, if you could help.
1. COc1ccc(S(=O)(=O)N2CC[C@@H]3[C@H](CO)Nc4ccc(C#Cc5cccc(OC)c5)cc4[C@@H]32)cc1
2. CO[C@@H](CN(C)C(=O)c1cnccn1)[C@@H](C)CN([C@@H](C)CO)S(=O)(=O)c1ccc(Cl)cc1
3. C[C@@H]1CCCCO[C@H](CN(C)S(=O)(=O)c2ccc(Cl)cc2)[C@@H](C)CN([C@H](C)CO)C(=O)c2cc(NC(=O)Nc3ccc4c(c3)OCO4)ccc2O1
4. O=C(C[C@H]1C=C[C@@H](NC(=O)c2ccc(F)cc2)[C@@H](CO)O1)NCCc1ccncc1
5. CC(C)C#Cc1cnc2c(c1)C(=O)N([C@H](C)CO)C[C@@H](C)[C@H](CN(C)Cc1ccccc1)O2

(A)
1: 4.05% (inactive); 2: 0.364% (inactive); 3: 0.772% (inactive); 4: -1.66% (inactive); 5: -2.64% (inactive)

Data provenance is PubChem BioAssay AID651711.
